# SYSTEM UNDER TEST: angiotensin II receptor subtype 1 (AT1) (Oryctolagus cuniculus)
# Construct: receptor: from adrenal glands in rabbits; from tissue; host or cells: rabbit adrenal glands
# Sequence (P34976 whole entry): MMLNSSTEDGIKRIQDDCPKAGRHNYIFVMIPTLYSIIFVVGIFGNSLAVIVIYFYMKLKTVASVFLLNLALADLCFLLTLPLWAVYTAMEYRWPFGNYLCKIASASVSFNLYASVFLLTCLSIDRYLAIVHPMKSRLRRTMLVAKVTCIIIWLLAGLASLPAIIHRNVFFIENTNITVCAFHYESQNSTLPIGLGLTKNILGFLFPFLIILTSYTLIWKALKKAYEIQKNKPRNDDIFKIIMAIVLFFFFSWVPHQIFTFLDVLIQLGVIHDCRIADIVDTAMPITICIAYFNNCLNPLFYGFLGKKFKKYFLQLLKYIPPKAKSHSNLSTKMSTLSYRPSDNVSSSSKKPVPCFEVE
# ASSAY PROCEDURE: Binding assay, angiotensin II receptor subtype 1 (AT1)
# Set-up: species or system rabbit (adrenal glands)
ASSAY READOUT: pIC50
One number for each entry, as −log10 of the molar value.

The reported value for CCCCC(=O)Nc1ccc(C(=O)N(CC)CC)cc1NCc1ccc(-c2ccccc2-c2nn[nH]n2)cc1 in terms of pIC50 is 5.92
